Data provenance is ChEMBL document CHEMBL5143605.

target: Programmed cell death protein 1/Programmed cell death 1 ligand 1 (Homo sapiens, UniProt Q15116+Q9NZQ7); assay: Inhibition of Tag2-PD1/Tag1-PD-L1 (unknown origin) protein-protein interaction preincubated for 15 mins followed by addition of anti-Tag1-Eu3+ and anti-Tag2-XL665 and measured after 2 hrs by HTRF analysis
Sequence (Q15116 whole entry): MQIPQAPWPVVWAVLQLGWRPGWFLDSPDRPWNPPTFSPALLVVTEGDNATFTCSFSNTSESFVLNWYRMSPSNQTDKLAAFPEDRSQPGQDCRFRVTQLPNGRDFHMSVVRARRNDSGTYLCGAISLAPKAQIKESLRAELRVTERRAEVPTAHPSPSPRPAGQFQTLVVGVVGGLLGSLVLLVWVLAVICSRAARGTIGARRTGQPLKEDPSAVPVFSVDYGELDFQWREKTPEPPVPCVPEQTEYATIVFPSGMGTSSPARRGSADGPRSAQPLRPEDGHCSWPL
Sequence (Q9NZQ7 whole entry): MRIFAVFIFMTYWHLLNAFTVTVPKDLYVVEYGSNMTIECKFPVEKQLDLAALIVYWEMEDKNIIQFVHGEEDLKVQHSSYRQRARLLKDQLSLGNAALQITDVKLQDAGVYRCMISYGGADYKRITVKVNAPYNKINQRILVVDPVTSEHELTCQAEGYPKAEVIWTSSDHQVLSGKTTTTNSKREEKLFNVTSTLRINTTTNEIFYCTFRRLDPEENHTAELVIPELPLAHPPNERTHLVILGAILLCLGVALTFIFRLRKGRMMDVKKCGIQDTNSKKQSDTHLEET

[
  {
    "TEST SMILES": "N#Cc1cncc(COc2cc(C(=O)N3CCc4c(-c5ccccc5)cccc43)ccc2CN2CC[C@@H](CO)C2)c1",
    "COMPARATIVE SIGN": "=",
    "IC50 (nM)": 132
  },
  {
    "TEST SMILES": "N#Cc1cncc(COc2cc(C(=O)N3CCc4c(-c5ccccc5)cccc43)ccc2CNC2CCOCC2)c1",
    "COMPARATIVE SIGN": "=",
    "IC50 (nM)": 378
  },
  {
    "TEST SMILES": "CC(=O)NCCNCc1ccc(C(=O)N2CCc3c(-c4ccccc4)cccc32)cc1OCc1ccnc(C#N)c1",
    "COMPARATIVE SIGN": "=",
    "IC50 (nM)": 308
  },
  {
    "TEST SMILES": "COc1cc(C(=O)N2CCc3c(-c4ccccc4)cccc32)ccc1CNCCO",
    "COMPARATIVE SIGN": "=",
    "IC50 (nM)": 161
  },
  {
    "TEST SMILES": "CC(C)(CO)NCc1ccc(S(=O)(=O)N2CCc3c(-c4ccccc4)cccc32)cc1",
    "COMPARATIVE SIGN": ">",
    "IC50 (nM)": 5000
  },
  {
    "TEST SMILES": "N#Cc1cncc(COc2cc(C(=O)N3CCc4c(-c5ccccc5)cccc43)ccc2CN2CC[C@@H](O)C2)c1",
    "COMPARATIVE SIGN": "=",
    "IC50 (nM)": 124
  },
  {
    "TEST SMILES": "CN(CCO)Cc1ccc(C(=O)N2CCc3c(-c4ccccc4)cccc32)cc1OCc1cncc(C#N)c1",
    "COMPARATIVE SIGN": "=",
    "IC50 (nM)": 60.1
  },
  {
    "TEST SMILES": "CC(C)(CO)NCc1ccc(C(=O)N2CCc3c(-c4ccccc4)cccc32)cc1OCc1ccnc(C#N)c1",
    "COMPARATIVE SIGN": "=",
    "IC50 (nM)": 229
  },
  {
    "TEST SMILES": "COc1cccc(-c2cccc3c2CCN3C(=O)c2ccc(CNCCO)cc2)n1",
    "COMPARATIVE SIGN": ">",
    "IC50 (nM)": 5000
  },
  {
    "TEST SMILES": "CC(C)(CO)NCc1ccc(C(=O)N2CCc3c(-c4ccccc4)cccc32)cc1OCc1cncc(C#N)c1",
    "COMPARATIVE SIGN": "=",
    "IC50 (nM)": 116
  },
  {
    "TEST SMILES": "CC(=O)NCCNCc1ccc(C(=O)N2CCc3c(-c4ccccc4)cccc32)cc1OCc1cncc(C#N)c1",
    "COMPARATIVE SIGN": "=",
    "IC50 (nM)": 154
  },
  {
    "TEST SMILES": "CC(=O)NCCNCc1ccc(S(=O)(=O)N2CCc3c(-c4ccccc4)cccc32)cc1",
    "COMPARATIVE SIGN": ">",
    "IC50 (nM)": 5000
  },
  {
    "TEST SMILES": "N#Cc1cncc(COc2cc(C(=O)N3CCc4c(-c5ccccc5)cccc43)ccc2CN2CC[C@H](CO)C2)c1",
    "COMPARATIVE SIGN": "=",
    "IC50 (nM)": 128
  },
  {
    "TEST SMILES": "O=C(c1ccc(CNCCO)cc1)N1CCc2c(-c3cccc4[nH]ccc34)cccc21",
    "COMPARATIVE SIGN": "=",
    "IC50 (nM)": 635
  },
  {
    "TEST SMILES": "COCCNCc1ccc(C(=O)N2CCc3c(-c4ccccc4)cccc32)cc1OCc1cncc(C#N)c1",
    "COMPARATIVE SIGN": "=",
    "IC50 (nM)": 251
  },
  {
    "TEST SMILES": "O=C(c1ccc(CNCCO)cc1)N1CCc2c(-c3ccc4nccnc4c3)cccc21",
    "COMPARATIVE SIGN": ">",
    "IC50 (nM)": 5000
  },
  {
    "TEST SMILES": "N#Cc1cncc(COc2cc(C(=O)N3CCc4c(-c5ccccc5)cccc43)ccc2CN2CC[C@H](O)C2)c1",
    "COMPARATIVE SIGN": "=",
    "IC50 (nM)": 74.6
  },
  {
    "TEST SMILES": "N#Cc1cncc(COc2cc(C(=O)N3CCc4c(-c5ccccc5)cccc43)ccc2CNCCO)c1",
    "COMPARATIVE SIGN": "=",
    "IC50 (nM)": 87.3
  },
  {
    "TEST SMILES": "O=C(c1ccc(CNCCO)cc1)N1CCc2c(-c3ccncc3)cccc21",
    "COMPARATIVE SIGN": ">",
    "IC50 (nM)": 5000
  },
  {
    "TEST SMILES": "N#Cc1cncc(COc2cc(C(=O)N3CCc4c(-c5ccccc5)cccc43)ccc2CN2CCC[C@H]2C(=O)O)c1",
    "COMPARATIVE SIGN": "=",
    "IC50 (nM)": 626
  },
  {
    "TEST SMILES": "O=C(c1ccc(CNCCO)cc1)N1CCc2c(-c3cnc4[nH]ccc4c3)cccc21",
    "COMPARATIVE SIGN": "=",
    "IC50 (nM)": 876
  },
  {
    "TEST SMILES": "N#Cc1cc(COc2cc(C(=O)N3CCc4c(-c5ccccc5)cccc43)ccc2CNCCO)ccn1",
    "COMPARATIVE SIGN": "=",
    "IC50 (nM)": 105
  },
  {
    "TEST SMILES": "O=C(c1ccc(CNCCO)cc1)N1CCc2c(-c3ccc4ocnc4c3)cccc21",
    "COMPARATIVE SIGN": "=",
    "IC50 (nM)": 192
  },
  {
    "TEST SMILES": "N#Cc1cncc(COc2cc(C(=O)N3CCc4c(-c5ccccc5)cccc43)ccc2CN2CC[C@H](C(=O)O)C2)c1",
    "COMPARATIVE SIGN": "=",
    "IC50 (nM)": 53.2
  }
]
